# System: Pseudomonas aeruginosa ATCC 15692
# assayText: Antibacterial MIC, microdilution susceptibility test (CLSI)
# Type: cell-based
# experimentalParameters: ATCC15692, Mueller–Hinton broth, 37 °C, 24 h, read-out: MIC, μg/mL ± SE, P. Aeruginosa (ATCC 15692)
outcomeMeasure: MIC (µg/mL)
Express the result in µg/mL but write the number alone.

Considering COc1cc(CNC[C@H]2CN(c3ccc(N4CCOCC4)c(F)c3)C(=O)O2)cc(OC)c1 [Compound 11f] , its MIC with Pseudomonas aeruginosa ATCC 15692 was recorded as 32

Considering O=C1O[C@@H](CNCCCO[N+](=O)[O-])CN1c1ccc(N2CCOCC2)c(F)c1 [Compound 13] , its MIC with Pseudomonas aeruginosa ATCC 15692 was recorded as 32

Considering O=C(N[C@@H](Cc1ccccc1)C(=O)NC[C@H]1CN(c2ccc(N3CCOCC3)c(F)c2)C(=O)O1)OCc1ccccc1 [Compound 3e] , its MIC with Pseudomonas aeruginosa ATCC 15692 was recorded as 64

Considering O=C(NC[C@H]1CN(c2ccc(N3CCOCC3)c(F)c2)C(=O)O1)c1ccc(Cl)cc1 [Compound 5c] , its MIC with Pseudomonas aeruginosa ATCC 15692 was recorded as 32

Considering CC(C)[C@H](NC(=O)c1cnccn1)C(=O)NC[C@H]1CN(c2ccc(N3CCOCC3)c(F)c2)C(=O)O1 [Compound 9b] , its MIC with Pseudomonas aeruginosa ATCC 15692 was recorded as 32

Considering O=C(NC[C@H]1CN(c2ccc(N3CCOCC3)c(F)c2)C(=O)O1)c1ccc(F)cc1 [Compound 5b] , its MIC with Pseudomonas aeruginosa ATCC 15692 was recorded as 32

Considering O=C1O[C@@H](CNCc2ccc(F)cc2F)CN1c1ccc(N2CCOCC2)c(F)c1 [Compound 11e] , its MIC with Pseudomonas aeruginosa ATCC 15692 was recorded as 32

Considering CSCC[C@H](NC(=O)OC(C)(C)C)C(=O)NC[C@H]1CN(c2ccc(N3CCOCC3)c(F)c2)C(=O)O1 [Compound 3i] , its MIC with Pseudomonas aeruginosa ATCC 15692 was recorded as 32

Considering O=C(NC[C@H]1CN(c2ccc(N3CCOCC3)c(F)c2)C(=O)O1)c1cccc([N+](=O)[O-])c1Cl [Compound 5f] , its MIC with Pseudomonas aeruginosa ATCC 15692 was recorded as 32

Considering O=C(CNC(=O)OCc1ccccc1)NC[C@H]1CN(c2ccc(N3CCOCC3)c(F)c2)C(=O)O1 [Compound 3a] , its MIC with Pseudomonas aeruginosa ATCC 15692 was recorded as 64

Considering CC[C@H](C)[C@H](NC(=O)OC(C)(C)C)C(=O)NC[C@H]1CN(c2ccc(N3CCOCC3)c(F)c2)C(=O)O1 [Compound 3k] , its MIC with Pseudomonas aeruginosa ATCC 15692 was recorded as 32

Considering O=C(NC[C@H]1CN(c2ccc(N3CCOCC3)c(F)c2)C(=O)O1)c1cccnc1 [Compound 7b] , its MIC with Pseudomonas aeruginosa ATCC 15692 was recorded as 32

Considering C[C@H](NC(=O)OCc1ccccc1)C(=O)NC[C@H]1CN(c2ccc(N3CCOCC3)c(F)c2)C(=O)O1 [Compound 3b] , its MIC with Pseudomonas aeruginosa ATCC 15692 was recorded as 64

Considering O=C(NC[C@H]1CN(c2ccc(N3CCOCC3)c(F)c2)C(=O)O1)c1ccc([N+](=O)[O-])cc1 [Compound 5d] , its MIC with Pseudomonas aeruginosa ATCC 15692 was recorded as 32

Considering O=C(N[C@@H](Cc1ccccc1)C(=O)NC[C@H]1CN(c2ccc(N3CCOCC3)c(F)c2)C(=O)O1)c1cnccn1 [Compound 9c] , its MIC with Pseudomonas aeruginosa ATCC 15692 was recorded as 32

Considering O=C(NC[C@H]1CN(c2ccc(N3CCOCC3)c(F)c2)C(=O)O1)c1cnccn1 [Compound 7c] , its MIC with Pseudomonas aeruginosa ATCC 15692 was recorded as 32

Considering O=C1O[C@@H](CNCc2cccc(Cl)c2)CN1c1ccc(N2CCOCC2)c(F)c1 [Compound 11d] , its MIC with Pseudomonas aeruginosa ATCC 15692 was recorded as 32

Considering CC(C)C[C@H](NC(=O)c1cnccn1)C(=O)NC[C@H]1CN(c2ccc(N3CCOCC3)c(F)c2)C(=O)O1 [Compound 9a] , its MIC with Pseudomonas aeruginosa ATCC 15692 was recorded as 32

Considering CS(=O)(=O)c1ccc(CNC[C@H]2CN(c3ccc(N4CCOCC4)c(F)c3)C(=O)O2)cc1 [Compound 11b] , its MIC with Pseudomonas aeruginosa ATCC 15692 was recorded as 64

Considering CC(C)(C)OC(=O)N[C@@H](Cc1ccccc1)C(=O)NC[C@H]1CN(c2ccc(N3CCOCC3)c(F)c2)C(=O)O1 [Compound 3j] , its MIC with Pseudomonas aeruginosa ATCC 15692 was recorded as 64

Considering CNc1ccc(C(=O)NC[C@H]2CN(c3ccc(N4CCOCC4)c(F)c3)C(=O)O2)cc1 [Compound 5e] , its MIC with Pseudomonas aeruginosa ATCC 15692 was recorded as 32

Considering CSCC[C@H](NC(=O)OCc1ccccc1)C(=O)NC[C@H]1CN(c2ccc(N3CCOCC3)c(F)c2)C(=O)O1 [Compound 3d] , its MIC with Pseudomonas aeruginosa ATCC 15692 was recorded as 64

Considering CC(=O)NC[C@H]1CN(c2ccc(N3CCOCC3)c(F)c2)C(=O)O1 [Linezolid] , its MIC with Pseudomonas aeruginosa ATCC 15692 was recorded as 32

Considering C[C@H](NC(=O)OC(C)(C)C)C(=O)NC[C@H]1CN(c2ccc(N3CCOCC3)c(F)c2)C(=O)O1 [Compound 3g] , its MIC with Pseudomonas aeruginosa ATCC 15692 was recorded as 32

Considering O=C(NC[C@H]1CN(c2ccc(N3CCOCC3)c(F)c2)C(=O)O1)c1ccccc1 [Compound 5a] , its MIC with Pseudomonas aeruginosa ATCC 15692 was recorded as 32

Considering O=C(CCCC[C@@H]1SC[C@@H]2NC(=O)N[C@@H]21)NC[C@H]1CN(c2ccc(N3CCOCC3)c(F)c2)C(=O)O1 [Compound 15] , its MIC with Pseudomonas aeruginosa ATCC 15692 was recorded as 32

Considering CC(C)[C@H](NC(=O)OC(C)(C)C)C(=O)NC[C@H]1CN(c2ccc(N3CCOCC3)c(F)c2)C(=O)O1 [Compound 3h] , its MIC with Pseudomonas aeruginosa ATCC 15692 was recorded as 32

Considering CC(C)[C@H](NC(=O)OCc1ccccc1)C(=O)NC[C@H]1CN(c2ccc(N3CCOCC3)c(F)c2)C(=O)O1 [Compound 3c] , its MIC with Pseudomonas aeruginosa ATCC 15692 was recorded as 64

Considering CC(C)(C)OC(=O)NCC(=O)NC[C@H]1CN(c2ccc(N3CCOCC3)c(F)c2)C(=O)O1 [Compound 3f] , its MIC with Pseudomonas aeruginosa ATCC 15692 was recorded as 32

---

outcomeMeasure: melting point

The compound listed as `O=C(N[C@@H](Cc1ccccc1)C(=O)NC[C@H]1CN(c2ccc(N3CCOCC3)c(F)c2)C(=O)O1)OCc1ccccc1` shows melting point equal to 120 to 122 °C

The compound listed as `O=C(NC[C@H]1CN(c2ccc(N3CCOCC3)c(F)c2)C(=O)O1)c1cnccn1` shows melting point equal to 190 to 192 °C

The compound listed as `O=C(N[C@@H](Cc1ccccc1)C(=O)NC[C@H]1CN(c2ccc(N3CCOCC3)c(F)c2)C(=O)O1)c1cnccn1` shows melting point equal to 172 to 174 °C

The compound listed as `O=C(NC[C@H]1CN(c2ccc(N3CCOCC3)c(F)c2)C(=O)O1)c1cccnc1` shows melting point equal to 182 to 184 °C

The compound listed as `O=C(CCCC[C@@H]1SC[C@@H]2NC(=O)N[C@@H]21)NC[C@H]1CN(c2ccc(N3CCOCC3)c(F)c2)C(=O)O1` shows melting point equal to 222 to 224 °C

The compound listed as O=C1O[C@@H](CNCc2ccc(F)cc2F)CN1c1ccc(N2CCOCC2)c(F)c1 [Compound 11e] shows melting point equal to 74 to 76 °C

The compound listed as `O=C(NC[C@H]1CN(c2ccc(N3CCOCC3)c(F)c2)C(=O)O1)c1ccncc1` shows melting point equal to 198 to 200 °C

The compound listed as `CC(C)C[C@H](NC(=O)c1cnccn1)C(=O)NC[C@H]1CN(c2ccc(N3CCOCC3)c(F)c2)C(=O)O1` shows melting point equal to 90 to 92 °C

---

Task for the reader: assign each of the following molecules its reported melting point.

The molecule listed as CC(C)(C)OC(=O)NCC(=O)NC[C@H]1CN(c2ccc(N3CCOCC3)c(F)c2)C(=O)O1 [Compound 3f] shows melting point equal to 54 to 56 °C

The molecule listed as CNc1ccc(C(=O)NC[C@H]2CN(c3ccc(N4CCOCC4)c(F)c3)C(=O)O2)cc1 [Compound 5e] shows melting point equal to 195 to 197 °C

The molecule listed as CC(C)(C)OC(=O)N[C@@H](Cc1ccccc1)C(=O)NC[C@H]1CN(c2ccc(N3CCOCC3)c(F)c2)C(=O)O1 [Compound 3j] shows melting point equal to 69 to 71 °C

The molecule listed as CC(C)[C@H](NC(=O)c1cnccn1)C(=O)NC[C@H]1CN(c2ccc(N3CCOCC3)c(F)c2)C(=O)O1 [Compound 9b] shows melting point equal to 94 to 96 °C

The molecule listed as O=C(NC[C@H]1CN(c2ccc(N3CCOCC3)c(F)c2)C(=O)O1)c1cccc([N+](=O)[O-])c1Cl [Compound 5f] shows melting point equal to 200 to 202 °C

The molecule listed as O=C(NC[C@H]1CN(c2ccc(N3CCOCC3)c(F)c2)C(=O)O1)c1ccccc1 [Compound 5a] shows melting point equal to 174 to 176 °C

The molecule listed as C[C@H](NC(=O)OC(C)(C)C)C(=O)NC[C@H]1CN(c2ccc(N3CCOCC3)c(F)c2)C(=O)O1 [Compound 3g] shows melting point equal to 71 to 72 °C

These measurements were taken from paper PMC8880098.
